measured-on: P2X7R (Homo sapiens, UniProt Q99572)
measurement-description: Yo-Pro-1 uptake assay (Yo-Pro-1 Assay) in HEK-293 cells transiently transfected with P2X7R
experimental-conditions: HEK-293 cells transiently transfected with P2X7R; 30 μM bzATP as stimulus; readings 1 hour after stimulation; estimated from dose-response curves
Protocol: Yo-Pro-1 Iodide (Cat. No Y3603 from Fisher Scientific) is a fluorescent DNA-binding dye with a MW of 629 Da. This method is based upon the Yo-Pro-1 entrance to cells through the dilated or “large pore form” of P2X7R and its binding to intracellular DNA whereby it increases its fluorescence intensity (J. Pharmacol. Exp. Ther. 308, 1053-1061). […] This Yo-Pro-1 uptake was measured in HEK-293 cells transiently transfected with P2X7R (J. Biol. Chem. 290, 7930-7942). […]
Please respond with yes (1) when measured IC50 is strictly beneath 10 µM, and with no (0) in all other cases.

Worked cases, answers included:
| molecule | classification |
| --- | --- |
| CN1CCN(c2ccc(S(=O)(=O)N3CCCC(NC(=O)CCc4ccccc4)C3)cc2)CC1 (stereo not shown) | no (0) |
| CS(=O)(=O)c1ccc(N2CCCC(NC(=O)CCc3ccccc3)C2)cc1 (stereo not shown) | yes (1) |
| O=C(CCc1ccccc1)NC1CCCN(S(=O)(=O)c2ccc(N3CCCCC3)cc2)C1 (stereo not shown) | yes (1) |
| O=C(NCCc1ccccc1)C1CCN(S(=O)(=O)c2ccc(N3CCOCC3)cc2)CC1 | no (0) |
| O=C(CCc1ccccc1)NC1CCCN(S(=O)(=O)c2ccc(N3CCCC3)cc2)C1 (stereo not shown) | yes (1) |
| CCCCNc1ccc(S(=O)(=O)N2CCC(C(=O)O)CC2)cc1 | yes (1) |
| CC(C)(C)OC(=O)N1CCC(C2CCN(c3ccc(S(=O)(=O)N4CCCC(NC(=O)CCc5ccccc5)C4)cc3)CC2)CC1 (stereo not shown) | yes (1) |
| CC(C)(C)OC(=O)N1CCN(c2ccc(S(=O)(=O)N3CCCC(C(=O)NCCc4ccccc4)C3)cc2)CC1 (stereo not shown) | no (0) |
| O=C(CCc1ccccc1)N1CCN(S(=O)(=O)c2ccc(F)cc2)CC1 | no (0) |
| O=C(CCc1ccccc1)N1CCN(S(=O)(=O)c2ccc(N3CCCC3)cc2)CC1 | yes (1) |

Threshold test, IC50 < 10 µM: O=C(CCc1ccccc1)NC1CCCN(c2ccc(S(=O)(=O)NCc3ccco3)cc2)C1 (stereo not shown)
yes (1)

Threshold test, IC50 < 10 µM: O=C(CCc1ccccc1)NC1CCCN(c2ccc(S(=O)(=O)Nc3ccccc3)cc2)C1 (stereo not shown)
yes (1)

Threshold test, IC50 < 10 µM: O=C(CCc1ccccc1)NC1CCCN(S(=O)(=O)c2ccc(F)c(Cl)c2)C1 (stereo not shown)
yes (1)

Threshold test, IC50 < 10 µM: NC(=O)c1cc(Br)cc(N2CCOCC2)c1
no (0)

Threshold test, IC50 < 10 µM: CC(C)OC1CCN(c2ccc(S(=O)(=O)N3CCCC(NC(=O)CCc4ccccc4)C3)cc2)CC1 (stereo not shown)
yes (1)

Threshold test, IC50 < 10 µM: O=C(CCc1ccccc1)NC1CCCN(S(=O)(=O)c2ccc(-n3cc(Br)cn3)cc2)C1 (stereo not shown)
no (0)

Threshold test, IC50 < 10 µM: O=C(CCc1ccccc1)NC1CCCN(S(=O)(=O)c2ccc(N3CCOCC3)cc2)C1 (stereo not shown)
yes (1)

Threshold test, IC50 < 10 µM: CCOc1ccc(S(=O)(=O)N2CCCC(NC(=O)CCc3ccccc3)C2)cc1 (stereo not shown)
no (0)

----------
measured-on: P2X7R (Homo sapiens, UniProt Q99572)
Construct: expressed in transfected cells; host or cells: HEK-293
measurement-description: Yo-Pro-1 uptake assay (Yo-Pro-1 Assay) in HEK-293 cells transiently transfected with P2X7R
Type: cell-based
experimental-conditions: HEK293; compound at 5 μM; 30 μM bzATP stimulus; reading 1 hour after stimulation; transfected HEK-293 cells; read-out: Percentage of activity remains in the presence of the compound at 5 μM, P2X7R (Yo-Pro-1 Assay)
property-measured: remaining activity at 5 µM (%)
// return numeric value only (unit: %, not printed)

| compound | remaining activity at 5 µM (%) |
| --- | --- |
| O=C(NCCc1ccccc1)C1CCCN(S(=O)(=O)c2ccc(N3CCCC3)cc2)C1 (stereo not drawn) | 36.8 |

If you can, please state the reported remaining activity at 5 µM value of CC(C)(C)OC(=O)N1CCN(c2ccc(S(=O)(=O)N3CCN(C(=O)CCc4ccccc4)CC3)cc2)CC1 .
12.9

If you can, please state the reported remaining activity at 5 µM value of NC(=O)c1cc(Br)cc(N2CCOCC2)c1 .
75.2

If you can, please state the reported remaining activity at 5 µM value of O=C(CCc1ccccc1)NC1CCCN(c2ccc(S(=O)(=O)NC3CCCCC3)cc2)C1 (stereo not drawn) .
-1

If you can, please state the reported remaining activity at 5 µM value of O=C(CCc1ccccc1)NC1CCCN(S(=O)(=O)c2ccc(N3CCCCC3)cc2)C1 (stereo not drawn) .
-7.3

If you can, please state the reported remaining activity at 5 µM value of CN(C)c1ccc(S(=O)(=O)N2CCCC(NC(=O)CCc3ccccc3)C2)cc1 (stereo not drawn) .
-6.1

----------
measured-on: Human P2X2 receptor (P2X2R) (Homo sapiens, UniProt Q9UBL9)
Construct: expressed in transfected cells; host or cells: HEK-293
Sequence (Q9UBL9 whole entry): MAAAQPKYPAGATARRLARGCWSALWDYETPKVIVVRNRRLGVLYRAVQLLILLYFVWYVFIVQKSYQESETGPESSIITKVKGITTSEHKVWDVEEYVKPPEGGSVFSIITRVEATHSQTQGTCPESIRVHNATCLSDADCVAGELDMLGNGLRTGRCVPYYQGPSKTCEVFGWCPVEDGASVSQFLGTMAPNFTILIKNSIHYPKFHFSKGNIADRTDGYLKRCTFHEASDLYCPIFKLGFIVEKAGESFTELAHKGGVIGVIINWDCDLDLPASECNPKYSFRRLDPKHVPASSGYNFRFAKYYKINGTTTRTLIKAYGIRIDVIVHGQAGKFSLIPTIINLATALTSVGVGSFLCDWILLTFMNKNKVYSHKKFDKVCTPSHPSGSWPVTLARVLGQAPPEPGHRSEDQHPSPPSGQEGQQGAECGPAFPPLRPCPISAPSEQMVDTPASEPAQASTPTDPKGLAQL
measurement-description: Yo-Pro-1 uptake assay, P2X2R transfected HEK-293 cells
Format: cell-based
experimental-conditions: HEK293, compound at 5 μM, 5 μM ATP stimulus, read-out: Percentage of activity remains in the presence of the compound at 5 μM, P2X2R (Yo-Pro-1 Assay)
Please respond with satisfied when measured remaining activity at 5 µM is strictly beneath 70%, and with not satisfied in all other cases.

Worked cases, answers included:
| compound | measured-on | classification |
| --- | --- | --- |
| CN1CCN(c2ccc(S(=O)(=O)N3CCCC(NC(=O)CCc4ccccc4)C3)cc2)CC1 (centres unmarked) [#18] | Human P2X2 receptor (P2X2R) (Homo sapiens, UniProt Q9UBL9) | satisfied |
| O=C(CCc1ccccc1)NC1CCCN(S(=O)(=O)c2ccc(F)cc2)C1 (centres unmarked) [#3] | Human P2X2 receptor (P2X2R) (Homo sapiens, UniProt Q9UBL9) | satisfied |
| CC1CCCN(c2ccc(S(=O)(=O)N3CCCC(NC(=O)CCc4ccccc4)C3)cc2)C1 (centres unmarked) [#44] | Human P2X2 receptor (P2X2R) (Homo sapiens, UniProt Q9UBL9) | satisfied |
| O=C(NCCc1ccccc1)C1CCCN(S(=O)(=O)c2ccc(N3CCCC3)cc2)C1 (centres unmarked) [#25] | Human P2X2 receptor (P2X2R) (Homo sapiens, UniProt Q9UBL9) | not satisfied |
| O=C(CCc1ccccc1)NC1CCCN(S(=O)(=O)c2ccc(N3CCOCC3)cc2)C1 (centres unmarked) [#12] | Human P2X2 receptor (P2X2R) (Homo sapiens, UniProt Q9UBL9) | satisfied |
| O=C(NCCc1ccccc1)C1CCN(S(=O)(=O)c2ccc(N3CCCC3)cc2)CC1 [#21] | Human P2X2 receptor (P2X2R) (Homo sapiens, UniProt Q9UBL9) | satisfied |

Threshold test, remaining activity at 5 µM < 70%: O=C(CCc1ccccc1)NC1CCCN(S(=O)(=O)Cc2ccc(Br)cc2)C1 (centres unmarked) [#8]
satisfied

Threshold test, remaining activity at 5 µM < 70%: O=C(CCc1ccccc1)NC1CCCN(S(=O)(=O)c2ccc(N3CCCCC3)c(Cl)c2)C1 (centres unmarked) [#45]
not satisfied

Threshold test, remaining activity at 5 µM < 70%: O=C(CCc1ccccc1)NC1CCCN(c2ccc(S(=O)(=O)Nc3ccccc3)cc2)C1 (centres unmarked) [#50]
satisfied

Threshold test, remaining activity at 5 µM < 70%: O=C(CCc1ccccc1)NC1CCCN(S(=O)(=O)c2ccc(-n3cc(Br)cn3)cc2)C1 (centres unmarked) [#9]
not satisfied

----------
measured-on: P2X7R (Homo sapiens, UniProt Q99572)
Sequence (Q99572 1-595): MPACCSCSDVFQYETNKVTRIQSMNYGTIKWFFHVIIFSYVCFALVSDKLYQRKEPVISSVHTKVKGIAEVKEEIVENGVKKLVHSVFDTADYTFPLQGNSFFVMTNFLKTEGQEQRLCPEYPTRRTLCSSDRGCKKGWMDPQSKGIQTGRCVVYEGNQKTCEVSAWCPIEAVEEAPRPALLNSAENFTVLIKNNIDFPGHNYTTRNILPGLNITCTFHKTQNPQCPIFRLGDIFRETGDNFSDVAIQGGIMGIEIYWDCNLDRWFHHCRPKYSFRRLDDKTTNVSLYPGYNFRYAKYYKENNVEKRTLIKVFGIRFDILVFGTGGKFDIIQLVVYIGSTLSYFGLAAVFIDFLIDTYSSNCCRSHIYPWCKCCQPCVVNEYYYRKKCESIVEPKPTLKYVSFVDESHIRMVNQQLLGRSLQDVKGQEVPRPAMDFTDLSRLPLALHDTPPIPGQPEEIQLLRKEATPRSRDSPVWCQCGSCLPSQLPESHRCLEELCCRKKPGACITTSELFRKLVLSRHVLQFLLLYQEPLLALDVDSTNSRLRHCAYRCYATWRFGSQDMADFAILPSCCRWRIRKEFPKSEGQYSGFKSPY
measurement-description: Yo-Pro-1 uptake assay (Yo-Pro-1 Assay) in HEK-293 cells transiently transfected with P2X7R
experimental-conditions: HEK-293 cells transiently transfected with P2X7R; 30 μM bzATP as stimulus; readings 1 hour after stimulation; estimated from dose-response curves
property-measured: pIC50
Give only the number. pIC50 is defined as minus log10 of concentration in molar units.

If you can, please state the reported pIC50 value of CN(C)c1ccc(S(=O)(=O)N2CCCC(NC(=O)CCc3ccccc3)C2)cc1 (stereo not drawn) [#14] .
5.85

If you can, please state the reported pIC50 value of O=S(=O)(c1ccccc1)C1CN(S(=O)(=O)c2ccc(N3CCCCC3)cc2)C1 [#10] .
5.23

If you can, please state the reported pIC50 value of O=C(CCc1ccccc1)NC1CCCN(S(=O)(=O)c2ccc(OCc3ccccc3)cc2)C1 (stereo not drawn) [#4] .
5.09

If you can, please state the reported pIC50 value of O=C(CCc1ccccc1)N1CCN(S(=O)(=O)c2ccc(N3CCOCC3)cc2)CC1 [#32] .
5.42

If you can, please state the reported pIC50 value of O=C(CCc1ccccc1)N1CCN(S(=O)(=O)c2ccc(NC3CCCCC3)cc2)CC1 [#33] .
6.40

If you can, please state the reported pIC50 value of CC(C)(C)OC(=O)N1CCN(c2ccc(S(=O)(=O)N3CCN(C(=O)CCc4ccccc4)CC3)cc2)CC1 [#31] .
5.52

If you can, please state the reported pIC50 value of CC1CCCN(c2ccc(S(=O)(=O)N3CCCC(NC(=O)CCc4ccccc4)C3)cc2)C1 (stereo not drawn) [#44] .
7.00

If you can, please state the reported pIC50 value of O=C(NCCc1ccccc1)C1CCCN(S(=O)(=O)c2ccc(N3CCCC3)cc2)C1 (stereo not drawn) [#25] .
5.29

If you can, please state the reported pIC50 value of O=C(CCc1ccccc1)NC1CCCN(S(=O)(=O)c2ccc(N3CCC(Oc4ccccc4)CC3)cc2)C1 (stereo not drawn) [#38] .
6.05
